Assay: protein stability index of a GFP-peptide fusion (GPS, HEK-293T) (PSI 1-6); higher = more stable;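 note: 24-mer peptide tiles fused after GFP, lentivirally expressed, FACS-sorted into six equal bins by GFP/DsRed ratio, decoded by Illumina sequencing, PSI is the read-weighted mean bin number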
Details: treatment: MLN4924 1 uM, 8 h; c terminus: a fixed tail appended
valueKind: protein stability index
Write the number on its own, no unit after it.

Please list protein stability index recorded for the sequence VCYHYYADWFMSLGVGLLTFASLE [TMEM40]
3.08

Identify protein stability index associated with the sequence GGLMARPEYREWNPELIKPKKLLN [FAM107A]
4.5

Assign protein stability index to the following record: WKDIIHNPQALSPQFTGILQLLQS [INTS3]
2.14

Look up and state reported protein stability index for GRNRLYHDGKNQPSKTYPAFLEPD [SPSB1]
4.37

Annotate the sequence DEPGKGGFWRIDPQYAERLLSGAF [FOXJ1] with its measured protein stability index.
2.73

Identify the reported protein stability index for the following entry. NVCSLLAQTPLHVAAETGHTSTAR [RIPK4]
3.47

Provide measured protein stability index value, entry: RRGELRHITKLKPWSLFDVLVEKY [SRPK2]
2.12

Name the recorded protein stability index of the item TDGRPQDSVAEVAAKARDTGILIF [MATN2] in your answer.
3.12

Tell me protein stability index reported for YVQWSLPFIVFGATGLTSGLLSLL [SLC22A15]
2.94

State its protein stability index: KDIAHFWELGGGTSLLDLISIPIT [DYNC2LI1]
2.07

---

# protein stability index annotations
Test: protein stability index of a GFP-peptide fusion (GPS, HEK-293T) (PSI 1-6); higher = more stable
Details: treatment: DMSO; c terminus: a fixed tail appended
Answer with a number only.

                        itemsequence  numericresult
0   PSKTYPAFLEPDETFIVPDSFLVA [SPSB1]           2.39
1  PGFLSTAEEETLSRELEPELRRRR [ALKBH7]           5.12
2   LGQIVLLPAEARERSRGRSISRGR [MATN2]           3.86
3   EDQWGKGTLTPRMTTDFDLSLDNS [TRIM9]            4.7
4   LEFLLALYFLFADAMQLNDKWQGL [CMTM3]           2.77
5   KNANRPLLDEIVPVYRRDCHEEVY [ACBD3]           3.88
6    SEVSCKKRDDYLEWPEYFMAVAFL [DCTD]           2.15
7   VERAQQVAVQEQEIARREKELEAR [FLOT1]           5.27
8   VERPHSGLPGKVFACLSVLFVTVT [KCNG1]           3.03

Next, consider the following sequence.
State, in one line, measured protein stability index of RRKEYDALKAAKREQEKKPKKEAN [LRRC59]
5.25

---

Experiment: protein stability index of a GFP-peptide fusion (GPS, HEK-293T) (PSI 1-6); higher = more stable
Settings: treatment: DMSO; c terminus: a fixed tail appended
List of protein stability index values.
Please give the numeric answer without any surrounding text.

In [3]: df
Out[3]:
                        itemsequence  numericresult
0   QKTSRSSSIPCSGSLDGRELSRQV [PPEF2]           4.32
1  LSFYNVTDRSHIYTFTDTFTEKLW [TRIM39]           2.52
2  TLVDESDLYNWEVAIFGPPNTLYE [UBE2R2]           2.71
3    SVAVPPPPPNRMYPPPPPALPSSA [WASL]            4.5
4    MSHHPSGLRAGFSSTSYRRTFGPP [PRPH]           2.92

Look up protein stability index of EANSAKVQEDLEAEFQSLFSLLEE [FSD1] and report it.
5.02

Identify measured protein stability index corresponding to VPIPTVNQYLYFLFAPTLIYRDSY [SOAT1]
3.32

Give the measured protein stability index for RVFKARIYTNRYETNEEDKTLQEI [FBXO39]
2.98
